Can you tell me fold induction at 0.5 mg/ml for the items I'm about to list?
Assay: Genotoxicity in Salmonella typhimurium TA1535 harboring pSK1002 assessed as umu gene induction at 0.5 mg/ml in absence of Sprague-Dawley rat liver S9 fraction metabolic activation by SOS/umu assay relative to control
Format: toxicity
Details: salmonella enterica subsp. enterica serovar typhimurium, read-out: FC
Answers are plain numbers.

> print(dat)
                                smiles.code  recorded.result
1  O=C(CCN1CCN(c2ccc(C(F)(F)F)cc2)CC1)c1ccc(O)cc1             0.43

Now look at this one.
O=C(CCN1CCN(c2ccc(Cl)cc2)CC1)c1ccc(O)cc1 has a reported fold induction at 0.5 mg/ml of 0.26
